Test: Tmax in Sprague-Dawley rat at 10 mg/kg, iv measured up to 24 hrs by LC-MS/MS analysis
Assay type: ADME, organism-based
Details: in vivo
readout: Tmax (min)
Answers are plain numbers, in min.

*Q* I would be grateful if you could share the reported Tmax for COc1cc(/C=C/C(=O)c2ccc(F)cc2)c(OC)cc1Br .
*A* 6.6

---

Assay: AUC (0 to t) in Sprague-Dawley rat at 30 mg/kg, po measured up to 24 hrs by LC-MS/MS analysis
Assay type: ADME, organism-based
Design: route oral, dose 30 mg/kg, time <=24
Details: in vivo
readout: AUC(0-t) at 24 h (ng·h/mL)
Numbers only, in ng·h/mL.

*Q* I would be grateful if you could share the reported AUC(0-t) at 24 h for COc1cc(/C=C/C(=O)c2ccc(F)cc2)c(OC)cc1Br .
*A* 15.8

---

Experiment: AUC (0 to t) in Sprague-Dawley rat at 10 mg/kg, iv measured up to 24 hrs by LC-MS/MS analysis
Format: ADME, organism-based
Set-up: route intravenous, dose 10 mg/kg, time <=24
Settings: in vivo
readout: AUC(0-t) at 24 h (ng·h/mL)
Give bare numbers, in ng·h/mL.

*Q* I would be grateful if you could share the reported AUC(0-t) at 24 h for COc1cc(/C=C/C(=O)c2ccc(F)cc2)c(OC)cc1Br .
*A* 106

---

Test: Cmax in Sprague-Dawley rat at 30 mg/kg, po measured up to 24 hrs by LC-MS/MS analysis
Format: ADME, organism-based
Set-up: route oral, dose 30 mg/kg, time <=24
Details: in vivo
readout: Cmax

*Q* I would be grateful if you could share the reported Cmax for COc1cc(/C=C/C(=O)c2ccc(F)cc2)c(OC)cc1Br .
*A* 16.4 ng/mL

---

Assay: Cmax in Sprague-Dawley rat at 10 mg/kg, po measured up to 24 hrs by LC-MS/MS analysis
Assay type: ADME, organism-based
Parameters: route oral, dose 10 mg/kg, time <=24
Conditions: in vivo
readout: Cmax

*Q* I would be grateful if you could share the reported Cmax for COc1cc(/C=C/C(=O)c2ccc(F)cc2)c(OC)cc1Br .
*A* 3.35 ng/mL

---

Test: Half life in Sprague-Dawley rat at 90 mg/kg, po measured up to 24 hrs by LC-MS/MS analysis
Type: ADME, organism-based
Conditions: in vivo
readout: half-life
Put down the number, then write its unit next to it.

*Q* I would be grateful if you could share the reported half-life for COc1cc(/C=C/C(=O)c2ccc(F)cc2)c(OC)cc1Br .
*A* 6.08 h

---

Assay: Half life in Sprague-Dawley rat at 30 mg/kg, po measured up to 24 hrs by LC-MS/MS analysis
Format: ADME, organism-based
Conditions: in vivo
readout: half-life (h)
Give bare numbers, in h.

*Q* I would be grateful if you could share the reported half-life for COc1cc(/C=C/C(=O)c2ccc(F)cc2)c(OC)cc1Br .
*A* 7.92

---

Test: Half life in Sprague-Dawley rat at 10 mg/kg, iv measured up to 24 hrs by LC-MS/MS analysis
Assay type: ADME, organism-based
Conditions: in vivo
readout: half-life (h)
Give bare numbers, in h.

*Q* I would be grateful if you could share the reported half-life for COc1cc(/C=C/C(=O)c2ccc(F)cc2)c(OC)cc1Br .
*A* 3.13
